Biological target: T1, C. milii NCBD (nuclear coactivator binding domain of CBP), Trp variant, first four residues truncated (C. milii)
T1 chain: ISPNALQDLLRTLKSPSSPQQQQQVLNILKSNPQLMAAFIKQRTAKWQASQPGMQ
TEST_READOUT: pKd
Scale note: pKd = -log10(concentration in M).

1) C. milii NCOA3 N-CID-C (CID with N- and C-terminal flanking regions) (domain or fragment) QTTSWSDNVLQMEQVHSGGQGRQPFGGSLDDLLCPPTTAEAQSDEKALLDQLDTLLSNADEMGLEEIDRALGIPDLISQVQPLEAHADQFSVQDTALMLEQKAMYGQQFNSQAGPMQGCY	7.06

Exercise: Kindly indicate its recorded pKd. Item: EAQSDEKALLDQLDTLLSNADEMGLEEIDRALGIPDLISQVQ (domain or fragment) [C. milii NCOA3 CID (minimal region)]
Key: 6.59
